Ref: patent US20230357139A1

# Tested on: BFT
# PROTOCOL DETAILS: E-cadherin release assay (BFT-induced E-cadherin release from HT29 cells)
# Format: cell-based, B. fragilis
# STATED CONDITIONS: 18 hours, E-cadherin in supernatant by ELISA, read-out: HT29 Cell IC50
pIC50: −log10 of the molar value.
# pIC50 listing for each entry below
RECORDED ENDPOINT: pIC50

{"COMPOUND": "COc1cccc(S(=O)(=O)N(Cc2cccnc2)[C@H](CC(C)C)C(=O)NO)c1", "PREFIX OPERATOR": "<", "QUANTITATIVE READOUT": 4.30}
{"COMPOUND": "CC(C)C[C@H](C(=O)NO)N(Cc1ccc2[nH]ccc2c1)S(=O)(=O)c1ccc(O)cc1", "PREFIX OPERATOR": "=", "QUANTITATIVE READOUT": 5.76}
{"COMPOUND": "O=C(NO)[C@@H](Cc1ccc(C(F)(F)F)cc1)N(Cc1cccnc1)S(=O)(=O)c1ccc(O)cc1", "PREFIX OPERATOR": "=", "QUANTITATIVE READOUT": 5.14}
{"COMPOUND": "COc1ccc(S(=O)(=O)N(Cc2cccnc2)[C@H](Cc2ccccc2)C(=O)NO)cc1", "PREFIX OPERATOR": "=", "QUANTITATIVE READOUT": 5.08}
{"COMPOUND": "O=C(NO)C(c1ccc(F)cc1)N(Cc1cccnc1)S(=O)(=O)c1ccc(O)cc1 (stereo not drawn)", "PREFIX OPERATOR": "<", "QUANTITATIVE READOUT": 4.30}
{"COMPOUND": "COc1ccc(S(=O)(=O)N(Cc2cccnc2)[C@H](Cc2ccc(C(F)(F)F)cc2)C(=O)NO)cc1", "PREFIX OPERATOR": "<", "QUANTITATIVE READOUT": 4.80}
{"COMPOUND": "O=C(NO)[C@@H](Cc1ccc(O)cc1)N(Cc1cccnc1)S(=O)(=O)c1ccc(O)cc1", "PREFIX OPERATOR": "=", "QUANTITATIVE READOUT": 5.20}
{"COMPOUND": "CC(C)C[C@H](C(=O)NO)N(Cc1cccnc1)S(=O)(=O)c1ccc(O)cc1", "PREFIX OPERATOR": "=", "QUANTITATIVE READOUT": 5.82}
{"COMPOUND": "CC(C)C[C@H](C(=O)NO)N(Cc1cscn1)S(=O)(=O)c1ccc(O)cc1", "PREFIX OPERATOR": "=", "QUANTITATIVE READOUT": 6.01}
{"COMPOUND": "C[C@H](O)[C@H](C(=O)NO)N(Cc1cccnc1)S(=O)(=O)c1ccc(O)cc1", "PREFIX OPERATOR": "=", "QUANTITATIVE READOUT": 5.17}
{"COMPOUND": "CC(C)C[C@H](C(=O)NO)N(Cc1ccncc1)S(=O)(=O)c1ccc(O)cc1", "PREFIX OPERATOR": "=", "QUANTITATIVE READOUT": 6.70}
{"COMPOUND": "O=C(CN(Cc1cccnc1)S(=O)(=O)c1ccc(O)cc1)NO", "PREFIX OPERATOR": "=", "QUANTITATIVE READOUT": 4.72}

* * *

# EXPERIMENTAL TARGET: collagenase H (ColH) (Hathewaya histolytica, UniProt Q46085)
# Sequence (Q46085 41-1021 limits assumed): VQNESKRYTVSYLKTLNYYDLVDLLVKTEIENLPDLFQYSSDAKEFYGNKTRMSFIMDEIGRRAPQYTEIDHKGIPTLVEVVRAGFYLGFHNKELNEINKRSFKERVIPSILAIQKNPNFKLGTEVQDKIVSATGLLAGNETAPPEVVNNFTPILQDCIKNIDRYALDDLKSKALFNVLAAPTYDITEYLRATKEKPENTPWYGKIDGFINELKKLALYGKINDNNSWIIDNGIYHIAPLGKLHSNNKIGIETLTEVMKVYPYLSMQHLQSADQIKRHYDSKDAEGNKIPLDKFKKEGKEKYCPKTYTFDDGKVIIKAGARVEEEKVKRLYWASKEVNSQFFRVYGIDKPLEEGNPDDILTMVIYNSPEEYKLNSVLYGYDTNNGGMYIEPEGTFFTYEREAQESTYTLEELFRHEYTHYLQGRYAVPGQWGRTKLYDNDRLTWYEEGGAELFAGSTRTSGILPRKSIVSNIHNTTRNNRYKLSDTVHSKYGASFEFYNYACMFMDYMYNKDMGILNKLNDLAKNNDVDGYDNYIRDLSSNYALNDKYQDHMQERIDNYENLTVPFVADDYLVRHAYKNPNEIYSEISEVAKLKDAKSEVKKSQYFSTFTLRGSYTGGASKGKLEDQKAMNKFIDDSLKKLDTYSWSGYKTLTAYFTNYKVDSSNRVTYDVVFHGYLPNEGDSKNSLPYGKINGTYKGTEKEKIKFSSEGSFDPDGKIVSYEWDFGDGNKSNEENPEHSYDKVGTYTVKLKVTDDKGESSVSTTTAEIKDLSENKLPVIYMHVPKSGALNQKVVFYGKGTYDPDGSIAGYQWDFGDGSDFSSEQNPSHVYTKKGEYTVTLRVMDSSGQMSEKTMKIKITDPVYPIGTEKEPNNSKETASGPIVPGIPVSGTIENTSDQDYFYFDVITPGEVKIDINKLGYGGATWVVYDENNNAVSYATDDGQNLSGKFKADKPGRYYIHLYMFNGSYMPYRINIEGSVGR
# PROTOCOL DETAILS: biochemical
# Parameters: species or system Clostridium histolyticum

{"MOL": "CCC[C@H](C(=O)NO)N(Cc1ccc2[nH]ccc2c1)S(=O)(=O)c1ccc(O)cc1", "EXPERIMENTAL TARGET": "collagenase H (ColH) (Hathewaya histolytica, UniProt Q46085)", "UNIT SPEC": "µM", "PREFIX OPERATOR": "=", "IC50": 8.89}
{"MOL": "CCC[C@H](C(=O)NO)N(Cc1cccnc1)S(=O)(=O)c1ccc(O)cc1", "EXPERIMENTAL TARGET": "collagenase H (ColH) (Hathewaya histolytica, UniProt Q46085)", "UNIT SPEC": "µM", "PREFIX OPERATOR": "=", "IC50": 8.78}
{"MOL": "CNC(=O)COc1ccc(S(=O)(=O)N(CC(=O)NO)CC(C)C)cc1", "EXPERIMENTAL TARGET": "collagenase H (ColH) (Hathewaya histolytica, UniProt Q46085)", "UNIT SPEC": "µM", "PREFIX OPERATOR": ">", "IC50": 100}
{"MOL": "CC[C@H](C(=O)NO)N(CCc1cccnc1)S(=O)(=O)c1ccc(O)cc1", "EXPERIMENTAL TARGET": "collagenase H (ColH) (Hathewaya histolytica, UniProt Q46085)", "UNIT SPEC": "µM", "PREFIX OPERATOR": "=", "IC50": 3.82}
{"MOL": "CC(C)C[C@H](C(=O)NO)N(Cc1ccc2[nH]ccc2c1)S(=O)(=O)c1ccc(O)cc1", "EXPERIMENTAL TARGET": "collagenase H (ColH) (Hathewaya histolytica, UniProt Q46085)", "UNIT SPEC": "µM", "PREFIX OPERATOR": "=", "IC50": 0.384}
{"MOL": "CC(C)C[C@H](C(=O)NO)N(Cc1ccc(F)cc1)S(=O)(=O)c1ccc(O)cc1", "EXPERIMENTAL TARGET": "collagenase H (ColH) (Hathewaya histolytica, UniProt Q46085)", "UNIT SPEC": "µM", "PREFIX OPERATOR": "=", "IC50": 19.3}

* * *

# EXPERIMENTAL TARGET: UniProtKB Q46085
# PROTOCOL DETAILS: biochemical
# Set-up: species or system Clostridium histolyticum
# STATED CONDITIONS: read-out: ColH IC50

{"MOL": "CC(C)CN(CC(=O)NO)S(=O)(=O)c1ccc(OC(C)C)cc1", "IC50": "> 100 µM"}
{"MOL": "COc1ccc(S(=O)(=O)N(CC(=O)NO)CC(F)F)cc1", "IC50": "> 100 µM"}
{"MOL": "COCCOc1ccc(S(=O)(=O)N(CC(=O)NO)CC(C)C)cc1", "IC50": "> 100 µM"}
{"MOL": "COc1ccc(S(=O)(=O)N(CC(=O)NO)CC(C)C)cn1", "IC50": "> 100 µM"}
{"MOL": "CCOc1ccc(S(=O)(=O)N(CC(=O)NO)CC(C)C)cc1", "IC50": "> 100 µM"}
{"MOL": "COc1ccc(S(=O)(=O)N(CC(=O)NO)CC(C)C)cc1", "IC50": "0.612 µM"}

* * *

# Tested on: BFT
# PROTOCOL DETAILS: E-cadherin release assay (BFT-induced E-cadherin release from HT29 cells)
# Format: cell-based, B. fragilis
# STATED CONDITIONS: 18 hours, E-cadherin in supernatant by ELISA, read-out: HT29 Cell IC50
pIC50: −log10 of the molar value.

{"COMPOUND": "O=C(NO)C(c1ccccc1)N(Cc1cccnc1)S(=O)(=O)c1ccc(O)cc1 (centres unmarked)", "PREFIX OPERATOR": "=", "pIC50": 4.76}
{"COMPOUND": "CC(C)C[C@H](C(=O)NO)N(Cc1cnco1)S(=O)(=O)c1ccc(O)cc1", "PREFIX OPERATOR": "=", "pIC50": 5.29}
{"COMPOUND": "CSCC[C@H](C(=O)NO)N(Cc1cccnc1)S(=O)(=O)c1ccc(O)cc1", "PREFIX OPERATOR": "=", "pIC50": 5.42}
{"COMPOUND": "CC[C@H](C(=O)NO)N(Cc1cccnc1)S(=O)(=O)c1ccc(O)cc1", "PREFIX OPERATOR": "=", "pIC50": 6.11}
{"COMPOUND": "O=C(NO)[C@@H](Cc1ccccc1)N(Cc1cccnc1)S(=O)(=O)c1ccc(O)cc1", "PREFIX OPERATOR": "=", "pIC50": 5.31}
{"COMPOUND": "CC(C)C[C@H](C(=O)NO)N(Cc1ccc(F)cc1)S(=O)(=O)c1ccc(O)cc1", "PREFIX OPERATOR": "=", "pIC50": 5.89}
{"COMPOUND": "CC(C)C[C@H](C(=O)NO)N(Cc1cccnc1)S(=O)(=O)c1cccc(O)c1", "PREFIX OPERATOR": "<", "pIC50": 4.30}
{"COMPOUND": "O=C(NO)[C@@H](Cc1c[nH]c2ccccc12)N(Cc1cccnc1)S(=O)(=O)c1ccc(O)cc1", "PREFIX OPERATOR": "=", "pIC50": 5.79}
